# EXPERIMENTAL_PROTOCOL: Toxicity: LD50 in mice, perorally administered
# SETTINGS: mouse, in vivo, po, read-out: LD₅₀
METRIC_NAME: LD50

Some compounds with known LD50 results, for comparison:
COc1ccc(C[C@H](NC(=O)C(F)=Cc2ccc(C)cc2)C(=O)O)cc1 [Compound S-5] :: ≥ 3000 mg/kg
COc1ccc(C[C@H](NC(=O)C=Cc2ccc(C)cc2)C(=O)O)cc1 [Compound S-1] :: ≥ 3000 mg/kg

Now look at this one.
Request: Please list LD50 recorded for the compound COc1ccc(C[C@H](NC(=O)C=C(Cl)c2ccc(C)cc2)C(=O)O)cc1 [Compound S-9]
Response: ≥ 3000 mg/kg
